Reported IC50 values for the following molecules.
Tested on: heparanase (Homo sapiens, UniProt Q9Y251)
Sequence (Q9Y251 158-543 limits assumed): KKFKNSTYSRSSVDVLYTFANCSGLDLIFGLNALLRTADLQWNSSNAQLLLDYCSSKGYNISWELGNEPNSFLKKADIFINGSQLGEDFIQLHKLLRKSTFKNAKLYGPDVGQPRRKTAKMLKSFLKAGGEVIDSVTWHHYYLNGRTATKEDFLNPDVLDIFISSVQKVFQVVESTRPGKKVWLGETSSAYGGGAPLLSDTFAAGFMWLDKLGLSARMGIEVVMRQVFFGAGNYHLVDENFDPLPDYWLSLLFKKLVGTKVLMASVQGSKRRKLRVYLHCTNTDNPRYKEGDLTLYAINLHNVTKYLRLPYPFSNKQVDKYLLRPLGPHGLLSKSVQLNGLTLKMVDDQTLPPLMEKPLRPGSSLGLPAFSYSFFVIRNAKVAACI
Sequence (Q9Y251 36-109 limits assumed): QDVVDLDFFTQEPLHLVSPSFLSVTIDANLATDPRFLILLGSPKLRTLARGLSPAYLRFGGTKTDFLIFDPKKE
Assay overview: AGA*IA assay (fondaparinux cleavage, WST-1 colorimetric) for heparanase inhibition
Assay type: biochemical
Condition description: Table 3, fluorinated vs non-fluorinated derivatives; read-out: AGAIA assay IC50

COc1ccc(C(=O)Nc2ccc(CNc3ccc(-c4nc5cc(CC(=O)O)ccc5[nH]4)cc3F)cc2)cc1Br [Compound 10] = 2.86 µM
COc1ccc(C(=O)Nc2ccc(CNc3ccc(-c4nc5cc(CC(=O)O)ccc5o4)cc3)cc2)cc1Br [SST0915AA1, reference compound] = > 10 µM

Note: attention shifts to another entry.
In: Name the recorded IC50 for COc1ccc(C(=O)Nc2ccc(CNc3ccc(-c4nc5cc(CC(=O)O)ccc5[nH]4)cc3)cc2)cc1Br [SST0914AA1, reference compound] .
Out: > 10 µM

###

Tested on: heparanase (Homo sapiens)
Assay overview: AGA*IA assay (fondaparinux cleavage, WST-1 colorimetric) for heparanase inhibition
Type: biochemical
Condition description: Table 1, fluorinated vs non-fluorinated analogues
Value kind: IC50

Below, each entry is followed by its recorded IC50 result.
COc1ccc(C(=O)Nc2ccc(CNc3ccc(-c4nc5cc(CC(=O)O)ccc5[nH]4)cc3F)cc2)cc1Br = 2.86 µM
COc1ccc(C(=O)Nc2ccc(CNc3ccc(-c4nc5cc(CC(=O)O)ccc5[nH]4)cc3)cc2)cc1Br [SST0914AA1, reference compound] = > 10 µM

Note: attention shifts to another entry.
In: Name the recorded IC50 for COc1ccc(C(=O)Nc2ccc(CNc3ccc(-c4nc5cc(CC(=O)O)ccc5o4)cc3)cc2)cc1Br [SST0915AA1, reference compound] .
Out: > 10 µM
